- test.system: Glycoprotein 42 (Epstein-Barr virus (strain AG876))
- assay.name: EBV glycoprotein 42 binding blockers – biochemical, uHTS, fluorescence polarization, primary screen (AID 1085)
- particulars: Fluorescence polarization binding assay, mP read-out; tested at 21.74 µM
In all, about 220,000 compounds went through this assay and about 930 (0.42%) were called active. No stated cut-off is given here; in the data, active means inhibition above about 50%; inactive means the rest. Shown is part of a subset that was picked to be rich in actives.
Outcome codes: active, inactive

smiles=O=C(O)COc1ccc(-c2nccc(-c3cccs3)n2)cc1 class_name=active
smiles=O=C(Nc1nnc(Cc2ccc(Cl)cc2)s1)c1ccncc1 class_name=inactive
smiles=Cc1ccc(-c2nnc(SCC(=O)N/N=C/c3cccs3)n2-c2ccc(C)cc2)cc1 class_name=inactive
smiles=O=C(COc1ccc(-c2ccccc2)cc1)NN=C1CCCC1 class_name=inactive
smiles=CSc1ccccc1NC(=O)CN(C)CC(=O)Nc1cccc(Br)c1 class_name=inactive
smiles=CCOc1ccc2nc(N3CCCN(C(=O)Nc4ccccc4C)CC3)c(C#N)cc2c1 class_name=active
smiles=COC(=O)CSc1nccc(-c2cccs2)n1 class_name=inactive
smiles=CSc1cc(C)[nH]c(=O)n1 class_name=inactive
smiles=COc1ccc(Cc2nnc(NC(=O)Cc3cccs3)s2)cc1 class_name=active
smiles=Cc1ccc(NC(=S)Nc2ncccc2C)c(C)c1 class_name=inactive
smiles=O=C(COc1ccc(/C=N/NC(=O)c2ccc(O)cc2)cc1)Nc1ccc([N+](=O)[O-])cc1 class_name=active

FYI, the data here is from PubChem BioAssay AID1085.
